System: cultured rat pituitary cells
Assay type: cell-based
Non-standard residues stand in square brackets, D forms with d. hArg = N=C(N)NCCCC[C@H](N)C(=O)O; Nle = CCCC[C@H](N)C(=O)O
OUTCOME_MEASURE: secretion of β-endorphin (β-END-LI)

SUBSTANCE | secretion of β-endorphin (β-END-LI)
H-SEEPPISLDLTFHLLREVLE[Nle]A[hArg]AEQLAQQAHLNRRLMEE[Nle]-NH2 | stimulates
H-SEEPPISLDLTFHLLREVLE[Nle]ARAEQLAEQAHSNRRL[Nle]EII-NH2 [[Nle^21,38, Glu^29, Arg^36]-rCRF] | stimulates
H-SQEPPISLDLTFHLLREVLEMTRADQLAQQAHSNRRLLDIA-NH2 [[Arg^23,36]-oCRF] | stimulates
H-SEEPPISLDLTFHLLREVLEMTRAEQLAEQAHSNRRLMEEI-NH2 [[Thr^22, Glu^29,40, Arg^36]-rCRF] | stimulates
H-SQ[dY][dP]PISLDLTFHLLRE[Nle]LE[Nle]ARAEQEAEQAALNRLLLEEA-NH2 [[D-Tyr^3, D-Pro^4, Nle^18, 21]-AAHC] | stimulates

Please examine the following record next.
Q: // query secretion of β-endorphin (β-END-LI) value for entry H-SQEPPISLDLTFHLLRE[Nle]LE[Nle]ARAEQEAEQAALNRLLLEEA-NH2 [[Nle^18, 21]-AAHC]
A: stimulates
